Tested on: HCT-116 colon
Experiment: NCI tumour cell line growth inhibition, 48 h
This section presents compounds with their documented TGI values.
PROPERTY LABEL: TGI (µM)

1. CC/C(=C(/c1ccc(OCCN(C)C)cc1)c1ccc(OC(=O)CCCCC(=O)c2c(C)[nH]c(/C=C3\N=C(c4ccc[nH]4)C=C3OC)c2C)cc1)c1ccccc1    13.9
2. Cc1ccc(S(=O)(=O)N/N=C/C(=C/c2ccc(Cl)cc2)CC(/C=N/NS(=O)(=O)c2ccc(C)cc2)=C\c2ccc(Cl)cc2)cc1    18.9
3. CS(=O)(=O)Nc1ccc(N2Cc3cnc4ccc5[nH]ccc2c5c34)cc1    27.8
4. Cc1ccc(C(SCC(N)C(=O)O)(c2ccccc2)c2ccc(C)cc2)cc1 (stereo not drawn)    7.06
5. CC1=CC(/C=C(\C)CCCc2ccoc2)C2(OC(=O)C(C)=C2O)[C@H]2C1CC[C@@H]2C (stereo partly drawn)    38.1
6. C/C(=C\CCc1ccoc1)CC/C=C(\C)CCCC1=CC(=O)OC1    18.8
7. Clc1coc2nc3ccccc3c(Nc3ccc4c(c3)OCO4)c12    11.8
8. C=C1CC(c2ccc(OCCCN3C(=O)c4ccccc4C3=O)c(OC)c2)OC1=O (stereo not drawn)    6.6
9. C=CCNC1=C2C[C@@H](C)C[C@@H](OC)[C@H](OC(=O)CCCCN)[C@H](C)/C=C(\C)[C@@H](OC(N)=O)[C@H](OC)/C=C\C=C(/C)C(=O)NC(=CC1=O)C2=O    28
